Data provenance: patent US5536737A

IC50 tested on prolyl endopeptidase (Rattus norvegicus, UniProt O70196): recorded values
Sequence (O70196 whole entry): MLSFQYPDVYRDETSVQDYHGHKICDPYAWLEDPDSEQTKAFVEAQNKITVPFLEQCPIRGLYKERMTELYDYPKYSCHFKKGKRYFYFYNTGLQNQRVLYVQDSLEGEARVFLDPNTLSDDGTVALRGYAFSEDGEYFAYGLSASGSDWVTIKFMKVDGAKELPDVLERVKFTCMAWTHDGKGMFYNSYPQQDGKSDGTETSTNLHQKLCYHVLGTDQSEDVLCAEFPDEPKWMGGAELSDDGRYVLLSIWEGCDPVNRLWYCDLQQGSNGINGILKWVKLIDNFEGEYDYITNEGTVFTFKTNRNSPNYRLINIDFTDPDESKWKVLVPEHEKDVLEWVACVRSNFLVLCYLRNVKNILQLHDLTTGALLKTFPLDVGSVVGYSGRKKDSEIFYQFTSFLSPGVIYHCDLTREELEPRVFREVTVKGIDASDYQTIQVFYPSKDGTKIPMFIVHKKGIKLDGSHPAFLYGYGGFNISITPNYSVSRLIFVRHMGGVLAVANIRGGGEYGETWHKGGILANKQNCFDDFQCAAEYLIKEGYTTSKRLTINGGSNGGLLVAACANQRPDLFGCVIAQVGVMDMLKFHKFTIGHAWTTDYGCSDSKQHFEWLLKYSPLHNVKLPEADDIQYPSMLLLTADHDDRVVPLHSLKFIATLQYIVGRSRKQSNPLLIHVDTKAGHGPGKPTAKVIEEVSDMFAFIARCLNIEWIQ
Endpoint Label: IC50 (nM)

> print(dat)
                            smiles.notation  experimental.result
1  COc1ccc(CNC(=O)N2CCC[C@H]2C(=O)N2CCC[C@H]2C(=O)CO)cc1                  0.7
2  Cc1ccc(CNC(=O)N2CCC[C@H]2C(=O)N2CCC[C@H]2C(=O)COC(=O)c2ccccc2)cc1                  0.4
3  CC(C)(C)C(=O)OCC(=O)[C@@H]1CCCN1C(=O)[C@@H]1CCCN1C(=O)NCc1ccccc1                    1
4  CCCCCCCC(=O)N1CCC[C@H]1C(=O)N1CCC[C@H]1C(=O)COC(C)=O                    2
5  COc1ccc(OCC(=O)N2CCC[C@H]2C(=O)N2CCC[C@H]2C(=O)CO)cc1                    2
